target.under.test: canine TRPM8 (Canis lupus familiaris, UniProt Q1A7N1)
Construct: expressed in transfected cells
Sequence (Q1A7N1 1-1104): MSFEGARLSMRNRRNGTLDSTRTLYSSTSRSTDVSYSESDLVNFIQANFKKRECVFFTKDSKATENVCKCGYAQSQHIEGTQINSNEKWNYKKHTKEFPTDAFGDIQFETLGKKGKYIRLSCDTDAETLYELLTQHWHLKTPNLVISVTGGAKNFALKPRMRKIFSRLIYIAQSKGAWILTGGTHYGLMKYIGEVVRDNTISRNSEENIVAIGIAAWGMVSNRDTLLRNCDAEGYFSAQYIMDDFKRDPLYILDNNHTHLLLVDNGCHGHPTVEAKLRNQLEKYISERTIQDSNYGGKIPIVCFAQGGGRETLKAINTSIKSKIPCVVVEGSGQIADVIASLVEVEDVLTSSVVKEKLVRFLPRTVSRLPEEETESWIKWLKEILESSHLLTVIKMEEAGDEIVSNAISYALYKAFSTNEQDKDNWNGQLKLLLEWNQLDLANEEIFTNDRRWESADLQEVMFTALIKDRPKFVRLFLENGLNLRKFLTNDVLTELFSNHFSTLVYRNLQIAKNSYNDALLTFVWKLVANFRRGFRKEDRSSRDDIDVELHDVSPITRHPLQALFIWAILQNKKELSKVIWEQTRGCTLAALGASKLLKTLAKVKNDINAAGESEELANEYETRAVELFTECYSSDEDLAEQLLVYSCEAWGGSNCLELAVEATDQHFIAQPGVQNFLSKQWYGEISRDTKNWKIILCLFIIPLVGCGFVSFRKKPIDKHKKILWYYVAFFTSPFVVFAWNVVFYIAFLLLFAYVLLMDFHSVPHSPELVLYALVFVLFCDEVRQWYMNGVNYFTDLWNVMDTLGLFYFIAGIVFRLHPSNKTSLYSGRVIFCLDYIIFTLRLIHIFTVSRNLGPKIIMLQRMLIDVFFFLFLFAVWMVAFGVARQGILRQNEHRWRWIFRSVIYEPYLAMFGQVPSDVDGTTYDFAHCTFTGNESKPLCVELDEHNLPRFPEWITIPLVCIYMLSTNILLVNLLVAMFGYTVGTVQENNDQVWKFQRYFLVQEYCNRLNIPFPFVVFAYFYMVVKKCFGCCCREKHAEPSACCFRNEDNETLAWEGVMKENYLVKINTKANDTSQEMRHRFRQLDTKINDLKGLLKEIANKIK
assay: In vitro canine TRPM8 functional assay (Ca2+-sensitive dye, icilin activation; Table 4 TRPM8 Screening)
Format: cell-based
measurement.context: compound at 1 μM; HEK293 cells expressing canine TRPM8, icilin activation
# reported % I (1 μM); entries follow
property.measured: % I (1 μM) (%)

                                   molecule  result_value
0  CCOP(=O)(OCC)C(Cc1ccccc1-c1ccccc1)c1sc2ccccc2c1C (stereo not drawn)            69
1  CC(C)OP(=O)(OC(C)C)C(Cc1ccc(F)c(F)c1)c1sc2ccccc2c1C(C)C (stereo not drawn)           100
2  CCOP(=O)(OCC)C(Cc1ccccc1F)c1cc2ccccc2s1 (stereo not drawn)            93
3  CCOP(=O)(OCC)C(Cc1ccc(F)c(F)c1)C1=C(C)c2ccccc2S1(=O)=O (stereo not drawn)            89
4  CC(C)OP(=O)(OC(C)C)C(Cc1ccccc1F)c1sc2cc(Br)ccc2c1Br (stereo not drawn)            81
5  Cc1c(C(Cc2ccc(F)c(F)c2)P(=O)(OC(C)C)OC(C)C)oc2ccccc12 (stereo not drawn)            99
6  CCOP(=O)(OCC)C(Cc1ccccc1Cl)c1sc2ccccc2c1C (stereo not drawn)           100
7  CCOP(=O)(OCC)C(Cc1cc(F)c(Cl)cc1Cl)c1sc2ccccc2c1C (stereo not drawn)           100
8  CCOP(=O)(OCC)C(Cc1cc2ccccc2s1)c1cc2ccccc2s1 (stereo not drawn)            89
